# Test system: THP-1 human acute monocytic leukemia cell harboring NRAS G12D mutation
# METHOD NOTES: THP-1 cell proliferation assay (counter screen, CellTiter-96)
# Assay type: cell-based
# CONDITION DETAILS: Cytotoxicity, THP-1 cells (counter screen), 72 hours
MEASURED QUANTITY: IC50

Solved cases (5 shown):
(Q) Report IC50 for COCc1ccc(COc2ccc(Nc3ccc4ncc(N5CCOCC5)nc4c3C#N)cc2OC)nc1 [Example 125] please.
(A) > 10 µM

(Q) Given the entry COc1ccc(COc2ccc(Nc3ccc4ncc(OCCN(C)C)nc4c3C#N)cc2OC)cc1 [Example 13] , report its measured IC50.
(A) 1 to 10 µM

(Q) Which IC50 is reported for this molecule? COc1ccc(COc2ccc(Nc3ccc4ncc(N5CCC(N(C)C)CC5)nc4c3C#N)cc2OC)cn1 [Example 82]
(A) 1 to 10 µM

(Q) Entry under review: COc1cc(Nc2ccc3ncc(N4CCOCC4)nc3c2C#N)ccc1OCc1ccoc1 [Example 121] . Reported IC50?
(A) > 10 µM

(Q) So what does the record say about IC50 for COc1ccc(COc2ccc(Nc3ccc4ncc(N5CCC(N6CCOCC6)CC5)nc4c3C#N)cc2OC)cn1 [Example 102] ?
(A) > 10 µM

New cases:
(Q) For the molecule COc1cc(Nc2ccc3ncc(N4C[C@@H](C)O[C@@H](C)C4)nc3c2C#N)ccc1OCc1ccc(C)nc1 [Example 145] , what IC50 is on record?
(A) > 10 µM

(Q) Consider the molecule COc1ccc(COc2ccc(Nc3ccc4ncc(N(C)C)nc4c3C#N)cc2OC)cc1C#N [Example 139] and give its measured IC50.
(A) > 10 µM
